Hey, just so you know, these numbers are from ChEMBL document CHEMBL5143617.

procedure-summary: Permeability of the compound across apical to basolateral side in human Caco-2 cells at pH 7.4
Assay type: ADME, cell-based
condition-context: Caco-2, pH 7.4, read-out: permeability
quantity-kind: Papp A→B (×10⁻⁶ cm/s)
Your answer should be a plain number; it is taken to be in ×10⁻⁶ cm/s.

Ask: Which value of Papp A→B has been reported for CNC(=C[N+](=O)[O-])NCCSCc1ccc(CN(C)C)o1 [RANITIDINE] in the records?
Reply: 0.9

* * *

procedure-summary: Tmax in mouse plasma at 0.625 mg/kg, ip measured up to 480 mins by LC/ESI-MS/MS analysis
Type: ADME, organism-based
quantity-kind: Tmax

Ask: Find the recorded Tmax belonging to COc1cc2ncnc(N3CCC(CN4CCN(c5ccc(Cl)cc5)CC4)C3)c2cc1OC (stereo unspecified) and report it.
Reply: 5 min

* * *

procedure-summary: Tmax in mouse frontal cortex at 1.25 mg/kg, ip by LC/ESI-MS/MS analysis
Assay type: ADME, organism-based
quantity-kind: Tmax (min)
Please give a number only; it is taken to be in min.

Ask: State the recorded Tmax for this entry: COc1cccc(N2CCN(CC3CCN(c4ncnc5cc(OC)c(OC)cc45)C3)CC2)c1 (stereo unspecified)
Reply: 15

* * *

procedure-summary: Cmax in mouse frontal cortex at 0.625 mg/kg, ip by LC/ESI-MS/MS analysis
Format: ADME, organism-based
Set-up: dose 0.625 mg/kg, route ip
quantity-kind: Cmax

Ask: Endpoint output: Cmax of COc1cc2ncnc(N3CCC(CN4CCN(c5ccc(Cl)cc5)CC4)C3)c2cc1OC (stereo unspecified) . Value?
Reply: 327 ng/mL

* * *

procedure-summary: Ratio of drug concentration in striatum to plasma in mouse at 0.625 mg/kg, ip by LC/ESI-MS/MS analysis
Type: ADME, organism-based
condition-context: striatum and plasma
quantity-kind: Kp
The answer should be a number; do not append a unit.

Ask: Param item = COc1cc2ncnc(N3CCC(CN4CCN(c5ccc(Cl)cc5)CC4)C3)c2cc1OC (stereo unspecified) ; retrieve measured Kp.
Reply: 87.4

* * *

procedure-summary: Tmax in mouse hippocampus at 1.25 mg/kg, ip by LC/ESI-MS/MS analysis
Assay type: ADME, organism-based
quantity-kind: Tmax (min)
Express it in min; write the number only.

Ask: Report Tmax for COc1cccc(N2CCN(CC3CCN(c4ncnc5cc(OC)c(OC)cc45)C3)CC2)c1 (stereo unspecified) please.
Reply: 30

* * *

procedure-summary: AUC(0 to t) in mouse frontal cortex at 1.25 mg/kg, ip by LC/ESI-MS/MS analysis
Assay type: ADME, organism-based
Set-up: dose 1.25 mg/kg, route ip
quantity-kind: AUC(0-t)
Answer shape: numeric part, then the unit.

Ask: Find the recorded AUC(0-t) belonging to COc1cccc(N2CCN(CC3CCN(c4ncnc5cc(OC)c(OC)cc45)C3)CC2)c1 (stereo unspecified) and report it.
Reply: 726 ng·h/mL

* * *

procedure-summary: Apparent volume of distribution in mouse plasma at 0.625 mg/kg, ip measured up to 480 mins by LC/ESI-MS/MS analysis
Assay type: ADME, organism-based
quantity-kind: Vd/F (L/kg)
State just the number; it will be interpreted in L/kg.

Ask: Given the compound COc1cc2ncnc(N3CCC(CN4CCN(c5ccc(Cl)cc5)CC4)C3)c2cc1OC (stereo unspecified) , what is its reported Vd/F?
Reply: 0.272
